I'd be grateful if you could share measured SPOT peptide array binding signal intensity for these entries.
# target: ScLsb1
# experiment.summary: SPOT peptide array binding signal intensity (averaged, normalized) (arbitrary units (background-subtracted, floor 0; scale differs between SH3 domains)); higher = stronger binding of the SH3 domain to the peptide
Numbers only.

Below, 5 binders whose answers are already recorded.
[
  {
    "binder": "YRRKSIPFAPHQITA",
    "reported.measurement": 0.25
  },
  {
    "binder": "GRLRPKRIAPWHLIQ",
    "reported.measurement": 2.5
  },
  {
    "binder": "MKRSRPSRSIPYTTP",
    "reported.measurement": 10.2
  },
  {
    "binder": "DDEDVPPQLPTRTKS",
    "reported.measurement": 576
  },
  {
    "binder": "NMLSRPRLAKLPSIR",
    "reported.measurement": 71.5
  }
]

Next up:
Query: Answer with reported SPOT peptide array binding signal intensity of `RFKRHRLEFPFNESE`
Reply: 36.2
